target: Heat shock protein HSP 90-alpha (Homo sapiens, UniProt P07900); test: Luminescence-based dose response biochemical high throughput screening assay for inhibitors of the Heat Shock Protein 90 (HSP90). [Related pubchem assays: 1831 (Summary AID.), 1846 (Confirmation screen.), 1789 (Primary screen.)]
The source made the active and inactive calls. Rule as the data show it: active = IC50 of 10 µM or less and inactive = more.
property measured: IC50

Here's what some known entries look like.
[
  {
    "chemical structure": "COC(=O)c1ccc2nc(NC(=O)C3CC3)sc2c1",
    "endpoint value": "3820 nM (active)"
  },
  {
    "chemical structure": "CCOC(=O)C1=C(c2ccc(OC)cc2)C(=O)c2ccccc2C1=O",
    "endpoint value": "322 nM (active)"
  },
  {
    "chemical structure": "CCCCn1c(NC(=O)c2ccccc2Cl)c(C#N)c2nc3ccccc3nc21",
    "endpoint value": "6150 nM (active)"
  }
]

From here, focus on the item given below.
input: Returns the measured IC50 for the input compound. Input: "O=C1c2cc(F)ccc2-n2c1nc1ccccc1c2=O"
output: 433 nM (active)
